# assay_system: IL-17A/A (Homo sapiens)
# Construct: purchased Genscript Z03228
# Sequence (Q16552 24-155): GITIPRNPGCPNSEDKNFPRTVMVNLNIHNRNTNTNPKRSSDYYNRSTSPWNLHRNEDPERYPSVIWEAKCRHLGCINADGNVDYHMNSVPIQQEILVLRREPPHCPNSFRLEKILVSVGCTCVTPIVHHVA
# assay: IL-17A/A HEK-Blue Cell Assay
# Assay type: cell-based
# conditions_used: HEK-Blue IL-17A reporter cell line, SEAP readout at A630, 20 hours incubation with IL-17A/A; top concentration 10 uM, 1 uM or 0.3 uM; read-out: IL-17A/A inhibition (pIC50) (converted)
# Method: The HEK-Blue IL-17A reporter cell line (Fisher #NC1408637) was used for cell-based IL-17A/A inhibition assays. Cells were grown and prepared for assays according to the manufacturer's instructions. […] Media from the cells is then added to a development reagent (Quanti-Blue Substrate, Fisher #NC9711613), and read at A630. […]
quantity_kind: IC50

compound	quantity_kind	result
CCC(=O)N[C@H](Cc1ccc(NC(=O)[C@@H](NC(=O)c2cnn3c2SCC3)C2CCCCC2)c(F)c1)C(=O)N1CCN(C)CC1	IC50	100 to 10000 nM

GET /value?item= CCC(=O)N[C@@H](C(=O)N1CCN(C)CC1)[C@@H](C)c1ccc(NC(=O)C(NC(=O)C(F)(F)c2ccc(OC)nc2)[C@@H](C)C2CCCCC2)c(F)c1 (stereo partly drawn) &field=IC50 returns < 10 nM

GET /value?item= CCC(=O)N[C@H](Cc1ccc(NC(=O)[C@@H](NC(=O)C(F)(F)c2ccc(OC)nc2)C2CCCCCC2)c(F)c1)C(=O)N1CCN(C)CC1 &field=IC50 returns 10 to 100 nM

GET /value?item= CCC(=O)N[C@@H](C(=O)O)[C@@H](C)c1ccc(NC(=O)[C@@H](NC(=O)c2ccnn2CC)C2CCCCCC2)c(F)c1 &field=IC50 returns 100 to 10000 nM

GET /value?item= CCC(=O)N[C@H](Cc1ccc(NC(=O)[C@@H](NC(=O)C(F)(F)c2cncs2)C2CCCCC2)c(F)c1)C(=O)N1CCN(C)CC1 &field=IC50 returns 100 to 10000 nM

GET /value?item= C[C@@H](c1ccc(NC(=O)[C@@H](NC(=O)C(F)(F)c2cccc(C#N)c2)C2CCCCC2)c(F)c1)[C@@H](NC(=O)NC1CCC1)C(=O)N1CCN(C)CC1 &field=IC50 returns 10 to 100 nM

GET /value?item= CCC(=O)N[C@@H](C(=O)N1CCC(C)(O)CC1)[C@@H](C)c1ccc(NC(=O)[C@@H](NC(=O)C(F)(F)c2cccc(C#N)c2)C2CCCCC2)c(F)c1 &field=IC50 returns < 10 nM

GET /value?item= CCC(=O)N[C@@H](C(=O)N1CCN(C)CC1)[C@@H](C)c1ccc(NC(=O)[C@@H](NC(=O)C(F)(F)c2cccc(C#N)c2)C2CCCCC2)c(F)c1 &field=IC50 returns < 10 nM

GET /value?item= CCn1nccc1C(=O)N[C@H](C(=O)Nc1ccc([C@H](C)[C@@H](NC(=O)[C@@H]2CCCO2)C(=O)N2CCN(C)CC2)cc1F)[C@H]1CC[C@H](C)CC1 &field=IC50 returns 10 to 100 nM

GET /value?item= CCC(=O)N[C@@H](C(=O)NCC1(C)CC1)[C@@H](C)c1ccc(NC(=O)[C@@H](NC(=O)c2ccnn2CC)[C@H]2CC[C@H](C)CC2)c(F)c1 &field=IC50 returns 10 to 100 nM

GET /value?item= CCn1nnnc1C(=O)N[C@H](C(=O)Nc1ccc([C@H](C)[C@@H](NC(=O)c2cnns2)C(=O)N2CCN(C)CC2)cc1F)[C@H]1CC[C@H](C)CC1 &field=IC50 returns 10 to 100 nM

GET /value?item= CCC(=O)N[C@@H](C(=O)N1C[C@@H](C)N[C@@H](C)C1)[C@@H](C)c1ccc(NC(=O)[C@@H](NC(=O)c2ccnn2CC)[C@H]2CC[C@H](C)CC2)c(F)c1 &field=IC50 returns 10 to 100 nM
